Target: T1, human FLT3 protein (human, UniProt P36888 27-541, limits assumed)
T1 construct: protein coated in the screening ELISA; also called ELISA FLT3
Test: colorimetric ELISA, signal over control wells lacking FLT3
MEASURED_QUANTITY: FLT3/control (ratio)
Quick note: give the figure in ratio, leave out the unit.

Req: Returns the measured FLT3/control for the input binder. Input: FLL823 (VHH, llama anti-FLT3 variable domain; E. coli periplasmic extract) VHH: QVQLQESGGGVVQVGGSLRLSCAASGGTFGYYAVGWFRQAPGKEREFVAAVTWNGAYLYSDPVKGRFTISRDNAKNTVYLQMNSLKSEDTAVYYCGLDRWSAVVESTPSTRGQGTQVTVSS
Resp: 4

Req: What about this binder? FLL178 (VHH, llama anti-FLT3 variable domain; E. coli periplasmic extract) VHH: QVQLQESGGGLVQPGGSLRLSCAASGFTFSDYAMSWVRQAPGKGLEWVSGISSGGYKIGYTDSTKGRFTISRDNAKNTLYLQMNSLTAEDTAVYYCAKGTQWSWSLRDNTSRGQGTQVTVSS
Resp: 48

Req: Now consider FLL41 (VHH, llama anti-FLT3 variable domain; E. coli periplasmic extract) VHH: QVQLQESGGGLVQLGDSLMVSCAASGGTFSSYATGWFRQVPGREREFIAGISRSGGRTYYAESVKGRFTISRDNAKNTVYLQMNTLKPDDTAVYYCAAARYFTTSVVYTSGDDYDYWGQGTQVTVSS and answer again.
Resp: 5

Req: Repeat for the following binder: FLL61 (VHH, llama anti-FLT3 variable domain; E. coli periplasmic extract) VHH: QVQLQESGGGLVQAGGSLRLSCAASERTFSSYAMGWFRQAPGKEREFVAAISWSGGSTYYADSVKGRFTISRDNAKNTVYLQMDSLKPEDTAVYYCAAGGSTRVVVTTTPIVKYWGQGTQVTVSS
Resp: 25
